Exercise: state measured Potency for each of the compounds provided.
assay: qHTS RealTime-Glo MT Cell Viability Assay in HepG2 cells - 40 hour (AID 1224870); conditions: RealTime-Glo luminescence; series mostly up to 76.8 µM; further: potency means the concentration at half of the fitted maximal effect; nearly all actives have a fitted effect of over 50% in size
Inconclusive results are not listed. The source made the active and inactive calls. The call rests on the fitted dose curve; in most records, active means well fitted cell-killing curve with a large enough effect in the repeat runs; inconclusive means weak or mixed curves, or effect the other way; inactive means flat fitted curve, though single readings scatter.

Examples with answers:
[
  {
    "substance.smiles": "CCCn1cc[n+](C)c1C",
    "result": "45 µM (active)"
  },
  {
    "substance.smiles": "C[N+](C)(CCOc1ccccc1)Cc1cccs1",
    "result": "23.9 µM (active)"
  },
  {
    "substance.smiles": "COc1ccc2cc1Oc1cc3c(cc1OC)CC[N+](C)(C)[C@H]3Cc1ccc(cc1)Oc1c(OC)c(OC)cc3c1[C@@H](C2)[N+](C)(C)CC3",
    "result": "16.9 µM (active)"
  }
]

Attention now shifts to the item below.
Exam item: Please give the measured Potency for this compound: `[K+]`
Marked response: 34.7 µM (active)

---

assay: qHTS assay to identify small molecule antagonists of the sonic hedgehog signaling (Shh) pathway (AID 1259369); conditions: NIH/3T3 Gli1-Luc reporter, Shh antagonist, luminescence 24 h; series mostly up to 92.4 µM; further: nearly all actives have a fitted effect of over 45% in size
Inconclusive results are not listed. Calls of active or inactive are those of the source. Calls follow the shape of the full dose curve.
Choose the fitting class; nothing outside t for active, f for inactive is accepted.

Some solved cases for reference:
[
  {
    "compound": "COc1cc(C(=O)NCc2ccc(OCCN(C)C)cc2)cc(OC)c1OC",
    "discrete.label": "f"
  },
  {
    "compound": "CCC(C)(CN(C)C)OC(=O)c1ccccc1 (stereo unspecified)",
    "discrete.label": "f"
  },
  {
    "compound": "CC(C#N)(CCC(=O)O)N=NC(C)(C#N)CCC(=O)O (stereo unspecified)",
    "discrete.label": "f"
  },
  {
    "compound": "C=C(C)C(=O)OCC(O)CO (stereo unspecified)",
    "discrete.label": "f"
  },
  {
    "compound": "C=CC(C)(CCC=C(C)C)OC(=O)CC (stereo unspecified)",
    "discrete.label": "f"
  },
  {
    "compound": "C=C(C)C(=O)OCCOCCOCCOCCOC(=O)C(=C)C",
    "discrete.label": "f"
  }
]

Exam item: Per the records of this test, what outcome belongs to `C[N+](C)(C)CCCCCCCCCC[N+](C)(C)C` ?
Marked response: f

Exam item: # repeat for NC(=O)NC1N=C([O][Al])NC1=O (stereo unspecified)
Marked response: f

Exam item: For `Cc1ncc([C@@H](CCCCCCc2ccc3c(n2)NCCC3)CC(=O)O)cn1` then?
Marked response: f

Exam item: Similarly, C[N+]12CCC(CC1)C(OC(=O)C(O)(c1ccccc1)c1ccccc1)C2 (stereo unspecified) ?
Marked response: f

Exam item: // repeat for `C1CCC2(CCCCO2)OC1` and report
Marked response: f

Exam item: Next: `OCCCCCO`
Marked response: f

Exam item: Same question, `c1ccc2sc(SN3CCOCC3)nc2c1` this time
Marked response: f

Exam item: Entry `[K+]` please
Marked response: f

Exam item: What about `CCCCS(=O)(=O)N[C@@H](Cc1ccc(OCCCCC2CCNCC2)cc1)C(=O)O` ?
Marked response: f

Exam item: Same thing, different compound: CCOCC(C)O (stereo unspecified)
Marked response: f

Exam item: Query NCCCC(N)(C(=O)O)C(F)F (stereo unspecified) next
Marked response: f

These data points were gathered from PubChem BioAssay (Tox21).
